- Protocol details: Half life in rat liver at 50 mg/kg, po
- Assay type: ADME, organism-based
Metric name: half-life (h)
Write down the numeric answer in h and omit the unit.

Name the recorded half-life of the item `CC(C)O[P@@]1(=O)OC[C@H]2O[C@@H](n3ccc(=O)[nH]c3=O)[C@@]3(CCO3)[C@@H]2O1` in your answer. 5.3

###

- Target or system: CYP3A4 (Homo sapiens, UniProt P08684)
- Sequence (P08684 whole entry): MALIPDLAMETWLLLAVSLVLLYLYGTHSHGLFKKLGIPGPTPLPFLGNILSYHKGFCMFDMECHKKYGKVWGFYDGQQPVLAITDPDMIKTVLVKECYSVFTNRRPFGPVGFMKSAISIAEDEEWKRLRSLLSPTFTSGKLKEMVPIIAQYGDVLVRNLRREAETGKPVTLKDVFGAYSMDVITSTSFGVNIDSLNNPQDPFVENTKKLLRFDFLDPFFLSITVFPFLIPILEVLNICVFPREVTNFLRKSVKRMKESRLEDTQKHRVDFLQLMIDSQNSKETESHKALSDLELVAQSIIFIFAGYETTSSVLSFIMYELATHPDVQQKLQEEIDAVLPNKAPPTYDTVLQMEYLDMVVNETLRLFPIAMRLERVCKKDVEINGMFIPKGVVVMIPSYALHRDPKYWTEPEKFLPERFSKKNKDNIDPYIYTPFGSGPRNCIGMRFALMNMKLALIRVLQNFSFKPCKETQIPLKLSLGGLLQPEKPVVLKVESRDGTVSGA
- Protocol details: Drug metabolism in baculovirus infected insect cell microsomes expressing human CYP3A4 assessed as CYP3A4-mediated half life at 22.7 uM
- Assay type: ADME
# half-life at 22.7 µM listing for each entry below
API: value field is a number in h; no unit string.

| Smiles repr | Target or system | half-life at 22.7 µM / h |
| --- | --- | --- |
| CC(C)O[P@@]1(=O)OC[C@H]2O[C@@H](n3ccc(=O)[nH]c3=O)[C@@]3(CCO3)[C@@H]2O1 | CYP3A4 (Homo sapiens, UniProt P08684) | 2.18 |

Consider the compound `CCOc1nc(N)nc2c1ncn2[C@@H]1O[C@@H]2CO[P@](=O)(OC(C)C)O[C@H]2[C@@]1(C)F` . State its measured half-life at 22.7 µM. 1.27

Measured values drawn from ChEMBL document CHEMBL3826882 for this set.
